test system: UACC-257 melanoma; assay: NCI tumour cell line growth inhibition, 48 h
READOUT_KIND: GI50

# input May I ask what GI50 has been recorded for CN(C)CCNC(=O)c1ccc2c(c1)oc1cc3ccccc3c(=O)n12 ?
# output 21.7 µM

# input May I ask what GI50 has been recorded for CN[C@@H](C)C(=O)N[C@H](C(=O)N1CCC[C@H]1c1nc(C(=O)c2ccc(F)cc2)cs1)C1CCCCC1 ?
# output 15.1 µM

# input May I ask what GI50 has been recorded for COc1ccc(CCN2CCCn3c2nc2ccccc2c3=O)cc1 ?
# output > 100 µM

# input May I ask what GI50 has been recorded for CCN(Cc1ccc(Cl)c(Cl)c1)c1ccc2nc(N)nc(N)c2c1C ?
# output 1.25 µM

# input May I ask what GI50 has been recorded for CCN1C(=O)N(CC)C2C1NN=c1s/c(=C3\C(=O)Nc4ccccc43)c(=O)n12 (centres undefined) ?
# output 25.2 µM

# input May I ask what GI50 has been recorded for COc1ccc(C2=Nn3c(nnc3-c3ccc(F)c(Cl)c3)SC2)cc1 ?
# output > 100 µM

# input May I ask what GI50 has been recorded for CN(c1cccc(C(=O)O)c1)c1cc(O/N=[N+](\[O-])N(C)C)c([N+](=O)[O-])cc1[N+](=O)[O-] ?
# output > 100 µM

# input May I ask what GI50 has been recorded for Cc1cccc(CNc2c3ccccc3nc3ccccc23)c1 ?
# output 2.11 µM

# input May I ask what GI50 has been recorded for COc1ccc(Cn2cc3c(c2-c2ccccc2)CCc2cnoc2-3)cc1 ?
# output 27.4 µM
